Tested on: SF-268 CNS
assayMethodText: NCI-60 one-dose screen, 48 h (100 = growth as untreated, 0 = no growth, -100 = all killed)
measurementParameters: 10 µM unless noted
About 83,000 compounds went through this panel and 20% of them were active in at least one assay; those are over-represented in the sample as a whole.
Property: growth; scope: individual compounds
State the answer as a number, implicitly in %.

{"structureSmilesString": "COC(=O)C1(NC(=O)CNC(=O)OCc2ccccc2)CCCC1", "dataValue": 114}
{"structureSmilesString": "C[C@H]1C(=O)N2c3ccccc3[C@@]3(O)C[C@@H](n4cnc5ccccc5c4=O)C(=O)N1[C@@H]23", "dataValue": 112}

Now look at this entry.
Request: Given CCCCc1ccc(C(N)=O)nc1 , respond with its growth.
Response: 101
